# System: cancer cells: MCF7, LNCaP, A549, OVCAR 8, LS174T, KB, MCF7-TH, HCT-15
# assay-summary: Cancer cell growth in vitro (cell counts)
# Assay type: cell-based, human
# measurement-conditions: 4 days of treatment, with DOTAP; read-out: IC50, growth inhibition of cancer cells
pIC50: −log10 of the molar value.
measurement-kind: pIC50

pIC50 reported for this substance 5'-TGACGTCA TGACGTCA TGACGTCA-3' (TGACGTCATGACGTCATGACGTCA; chemistry not given here) [24-mer CRE oligonucleotide, transcription factor decoy] : 6.82 to 7.00

These data points were gathered from patent US6060310A.
